Source of measurements: patent US20100125059A1

# Tested on: Caco-2 cells
# procedure.details: Cholesterol absorption inhibition assay (in vitro), [14C] cholesterol mixed micelles
# Format: cell-based
# assay.conditions: Homo sapiens, concentration of 12.5 μM, 24 hours, read-out: cholesterol absorption inhibitory activity
test.readout: inhibition at 12.5 µM

Batch: inhibition at 12.5 µM for all items listed.
1. CN(C)c1ccc(-c2ccc(N3C(=O)[C@H](SC[C@H](O)c4ccc(Cl)cc4)[C@H]3c3ccc(O)cc3)cc2)cn1
2. Cc1ccc([C@@H](O)CS[C@H]2C(=O)N(c3ccc(-c4cccnc4)cc3)[C@@H]2c2ccc(O)cc2)cc1
3. O=C1[C@H](SC[C@H](O)c2ccc(Cl)cc2)[C@@H](c2ccc(O)cc2)N1c1ccc(-c2cncc(C(F)(F)F)c2)cc1
4. N#Cc1cncc(-c2ccc(N3C(=O)[C@H](SC[C@H](O)c4ccc(Cl)cc4)[C@H]3c3ccc(O)cc3)cc2)c1
5. COc1ncccc1-c1ccc(N2C(=O)[C@H](SC[C@H](O)c3ccc(Cl)cc3)[C@H]2c2ccc(O)cc2)cc1

≥ 60%
≥ 60%
≥ 60%
≥ 60%
≥ 60%
